# reported pKi; entries follow
Target: Human α2δ-1 subunit of Cav2.2 calcium channel (Homo sapiens)
Test: Human α2δ-1 subunit of Cav2.2 calcium channel assay ([3H]-Gabapentin)
Type: binding
pKi: −log10 of the molar value.
readoutType: pKi

- Cc1nnc(N(C)C)c2nn(-c3ccccc3OC(CCNC3CC3)c3ccccc3)c(C)c12 (stereo not shown) [Example 27]: 5.30 to 6.30
- CNCC[C@H](Oc1ccccc1-n1nc2c(N(C)C)nnc(C)c2c1C)c1ccccc1 [Example 99]: 5.30 to 6.30
- CNCC[C@H](Oc1ccccc1-n1nc2c(N(C)C)nnc(C)c2c1C)c1cccc(F)c1 [Example 103]: > 6.30
- CCNCCC(Oc1ccccc1-n1nc2c(N(C)C)nnc(C)c2c1C)c1cccc(F)c1 (stereo not shown) [Example 47]: > 6.30

###

Below, each entry is listed alongside its reported pKi.
Target: Human α2δ-1 subunit of Cav2.2 calcium channel (Homo sapiens)
Assay: Human α2δ-1 subunit of Cav2.2 calcium channel assay ([3H]-Gabapentin)
Type: binding
Conditions: human α2δ-1 enriched membranes, 15 nM [3H]-Gabapentin; read-out: Binding α2δ-1 (Ki)
pKi: −log10 of the molar value.
readoutType: pKi

• CNCCCOc1ccccc1-n1nc2c(N(C)C)nnc(C)c2c1C [Example 4] = 5.30 to 6.30
• CNCCC(Oc1ccccc1-n1nc2c(N3CCCC3)nnc(C)c2c1C)c1ccccc1 (centres unmarked) [Example 36] = 5.30 to 6.30
• CNCCC(Oc1ccc(O)cc1-n1nc2c(N(C)C)nnc(C)c2c1C)c1ccccc1 (centres unmarked) [Example 97] = 5.30 to 6.30
• CNCCC(Oc1cc(Br)ccc1-n1nc2c(N(C)C)nnc(C)c2c1C)c1ccccc1 (centres unmarked) [Example 25] = 5.30 to 6.30
• Cc1nnc(N(C)C)c2nn(-c3ccccc3OC(Cc3ccccc3)CN(C)Cc3ccccc3)c(C)c12 (centres unmarked) [Example 74] = < 5.30
• CNCCC(COC)Oc1ccccc1-n1nc2c(N(C)C)nnc(C)c2c1C (centres unmarked) [Example 51] = < 5.30
• Cc1nnc(N(C)C)c2nn(-c3ccccc3OC(CCN(C)Cc3ccccc3)Cc3ccccc3)c(C)c12 (centres unmarked) [Example 75] = < 5.30
• CNCCCC(Oc1ccccc1-n1nc2c(N(C)C)nnc(C)c2c1C)c1ccccc1 (centres unmarked) [Example 46] = 5.30 to 6.30

###

Molecular target: Human α2δ-1 subunit of Cav2.2 calcium channel (Homo sapiens, UniProt P54289)
Sequence (P54289 25-1103): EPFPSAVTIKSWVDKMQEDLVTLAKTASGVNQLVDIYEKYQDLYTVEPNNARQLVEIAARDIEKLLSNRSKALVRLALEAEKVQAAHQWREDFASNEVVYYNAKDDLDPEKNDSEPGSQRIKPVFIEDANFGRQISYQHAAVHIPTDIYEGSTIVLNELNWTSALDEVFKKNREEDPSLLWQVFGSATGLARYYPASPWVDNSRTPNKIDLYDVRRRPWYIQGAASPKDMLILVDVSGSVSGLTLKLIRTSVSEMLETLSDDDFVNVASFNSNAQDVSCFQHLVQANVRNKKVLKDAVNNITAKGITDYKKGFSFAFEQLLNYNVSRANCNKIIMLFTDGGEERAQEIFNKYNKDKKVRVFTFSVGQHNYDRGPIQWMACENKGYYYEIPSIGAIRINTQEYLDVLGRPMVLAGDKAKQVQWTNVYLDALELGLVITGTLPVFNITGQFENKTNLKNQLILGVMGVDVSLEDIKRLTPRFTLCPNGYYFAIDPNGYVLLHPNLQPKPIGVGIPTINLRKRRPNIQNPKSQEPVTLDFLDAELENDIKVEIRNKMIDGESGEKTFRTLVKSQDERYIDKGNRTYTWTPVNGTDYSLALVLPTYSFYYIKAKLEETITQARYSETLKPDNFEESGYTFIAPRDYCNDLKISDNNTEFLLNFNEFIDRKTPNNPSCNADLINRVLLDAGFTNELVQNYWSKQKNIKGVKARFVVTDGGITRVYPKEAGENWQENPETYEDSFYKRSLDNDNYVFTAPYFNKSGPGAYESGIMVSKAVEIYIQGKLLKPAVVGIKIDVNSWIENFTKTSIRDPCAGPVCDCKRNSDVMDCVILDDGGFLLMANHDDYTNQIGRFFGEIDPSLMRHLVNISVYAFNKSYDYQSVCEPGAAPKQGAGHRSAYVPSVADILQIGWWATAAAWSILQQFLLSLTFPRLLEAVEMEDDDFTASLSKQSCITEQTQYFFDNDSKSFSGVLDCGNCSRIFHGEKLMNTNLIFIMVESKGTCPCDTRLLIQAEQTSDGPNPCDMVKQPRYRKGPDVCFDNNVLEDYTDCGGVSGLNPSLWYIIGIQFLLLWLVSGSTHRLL
Assay: Human α2δ-1 subunit of Cav2.2 calcium channel assay ([3H]-Gabapentin)
Format: binding
Description: Human α2δ-1 Subunit of Cav2.2 Calcium Channel Assay Human α2δ-1 enriched membranes (2.5 μg) were incubated with 15 nM of radiolabeled [3H]-Gabapentin in assay buffer containing Hepes-KOH 10 mM, pH 7.4. NSB (non specific binding) was measured by adding 10 μM pregabalin. […] Filter plates were dried at 60° C. for 1 hour and 30 μl of scintillation cocktail were added to each well before radioactivity reading. […] NSB (non specific binding) was measured by adding 10 μM pregabalin. […]
pKi: −log10 of the molar value.
The entries below come with measured pKi values attached.
readoutType: pKi

- Cc1nnc(N(C)C)c2nn(-c3ccccc3OCC3CCN(CCc4ccccc4)CC3)c(C)c12: < 5.30
- CNCCC(Oc1ccccc1-n1nc2c(N(C)C)nnc(C)c2c1C)c1cccs1 (stereo not shown): 5.30 to 6.30
- CCN(C)c1nnc(C)c2c(C)n(-c3ccccc3OC(CCNC)c3ccccc3)nc12 (stereo not shown): 5.30 to 6.30
- CNCCC(Oc1ccccc1-n1nc2c(N(C)C)nnc(C)c2c1C)c1cccc(O)c1 (stereo not shown): 5.30 to 6.30

###

Target: Human α2δ-1 subunit of Cav2.2 calcium channel (Homo sapiens, UniProt P54289)
Experiment: Human α2δ-1 subunit of Cav2.2 calcium channel assay ([3H]-Gabapentin)
Type: binding
Settings: human α2δ-1 enriched membranes, 15 nM [3H]-Gabapentin; read-out: Binding α2δ-1 (Ki)
Ki values, listed per item
readoutType: Ki

• CNCCC(Oc1ccccc1-n1nc2c(N(C)CCO)nnc(C)c2c1C)c1ccccc1 (stereo not shown) = 0.5 to 5 µM
• CNCCC(Oc1ccccc1-n1nc2c(N(C)C)nnc(C)c2c1C)c1cccnc1 (stereo not shown) = 0.5 to 5 µM
• Cc1nnc(N(C)C)c2nn(-c3ccccc3OC(c3ccccc3)C3CCNCC3)c(C)c12 (stereo not shown) = 0.5 to 5 µM
• Cc1nnc(N(C)C)c2nn(-c3ccccc3OC(c3ccccc3)C3CCN(C)CC3)c(C)c12 (stereo not shown) = > 5 µM

###

Biological target: Human α2δ-1 subunit of Cav2.2 calcium channel (Homo sapiens, UniProt P54289)
Assay: Human α2δ-1 subunit of Cav2.2 calcium channel assay ([3H]-Gabapentin)
Format: binding
Settings: human α2δ-1 enriched membranes, 15 nM [3H]-Gabapentin; read-out: Binding α2δ-1 (Ki)
pKi: −log10 of the molar value.
readoutType: pKi

* CNCCC(Oc1ccccc1-n1nc2c(N(C)C)nnc(C)c2c1C)c1nccs1 (centres unmarked) | 5.30 to 6.30
* CNCc1ccccc1COc1ccccc1-n1nc2c(N(C)C)nnc(C)c2c1C | 5.30 to 6.30
* Cc1nnc(N(C)C)c2nn(-c3ccccc3OCC3CCCNC3)c(C)c12 (centres unmarked) | 5.30 to 6.30
* CNCCC(Oc1ccccc1-n1nc2c(N3CCC3)nnc(C)c2c1C)c1ccccc1 (centres unmarked) | 5.30 to 6.30
* CNCCC(Oc1ccccc1-n1cc2cnnc(N(C)C)c2n1)c1ccccc1 (centres unmarked) | 5.30 to 6.30
* Cc1nnc(N(C)C)c2nn(-c3ccccc3OCCN3CCCC3)c(C)c12 | < 5.30
* CNCCC(Oc1ccccc1-n1nc2c(C)nnc(C)c2c1C)c1ccccc1 (centres unmarked) | < 5.30
* COCC(CCN(C)Cc1ccccc1)Oc1ccccc1-n1nc2c(N(C)C)nnc(C)c2c1C (centres unmarked) | 5.30 to 6.30
* CNCCC(Oc1ccccc1-n1nc2c(N(C)CCOC)nnc(C)c2c1C)c1ccccc1 (centres unmarked) | 5.30 to 6.30
* CCOc1ccc(OC(CCNC)c2ccccc2)c(-n2nc3c(N(C)C)nnc(C)c3c2C)c1 (centres unmarked) | 5.30 to 6.30
* CNCCC(Oc1ccc(C(=O)N(C)C)cc1-n1nc2c(N(C)C)nnc(C)c2c1C)c1ccccc1 (centres unmarked) | < 5.30
* CCOc1cccc(C(CCNC)Oc2ccccc2-n2nc3c(N(C)C)nnc(C)c3c2C)c1 (centres unmarked) | 5.30 to 6.30
* CNCCC(Oc1ccccc1-n1nc2c(N(C)C)nnc(C)c2c1C)c1ccccc1F (centres unmarked) | 5.30 to 6.30
* Cc1nnc(N(C)C)c2nn(-c3ccccc3OCC3CNCc4ccccc43)c(C)c12 (centres unmarked) | < 5.30

###

Target: Human α2δ-1 subunit of Cav2.2 calcium channel (Homo sapiens)
Assay: Human α2δ-1 subunit of Cav2.2 calcium channel assay ([3H]-Gabapentin)
Format: binding
Details: human α2δ-1 enriched membranes, 15 nM [3H]-Gabapentin; read-out: Binding α2δ-1 (Ki)
pKi: −log10 of the molar value.
Reported pKi values are given for each entry in this list.
readoutType: pKi

* CNCCC(Oc1ccccc1-n1nc2c(N3CCOCC3)nnc(C)c2c1C)c1ccccc1 (centres unmarked) | 5.30 to 6.30
* CNCCC(Oc1cc(N2CCCC2=O)ccc1-n1nc2c(N(C)C)nnc(C)c2c1C)c1ccccc1 (centres unmarked) | 5.30 to 6.30
* Cc1nnc(N(C)C)c2nn(-c3ccccc3OC3CCN(C)C3)c(C)c12 (centres unmarked) | < 5.30
* CNCCC(C)Oc1ccccc1-n1nc2c(N(C)C)nnc(C)c2c1C (centres unmarked) | 5.30 to 6.30
* Cc1nnc(N(C)C)c2nn(-c3ccccc3OC(CCN)c3ccccc3)c(C)c12 (centres unmarked) | 5.30 to 6.30
* CNCCC(Oc1ccc(NC(C)=O)cc1-n1nc2c(N(C)C)nnc(C)c2c1C)c1ccccc1 (centres unmarked) | 5.30 to 6.30
* Cc1nnc(N(C)C)c2nn(-c3ccccc3OCC3CCNCC3)c(C)c12 | < 5.30
* Cc1nnc(N(C)C)c2nn(-c3ccccc3OCCCNCCc3ccccc3)c(C)c12 | 5.30 to 6.30

###

Biological target: Human α2δ-1 subunit of Cav2.2 calcium channel (Homo sapiens)
Test: Human α2δ-1 subunit of Cav2.2 calcium channel assay ([3H]-Gabapentin)
Type: binding
Settings: human α2δ-1 enriched membranes, 15 nM [3H]-Gabapentin; read-out: Binding α2δ-1 (Ki)
readoutType: Ki

* Cc1nnc(N(C)C)c2nn(-c3ccccc3OC(c3ccccc3)C3CNC3)c(C)c12 (centres unmarked) | 0.5 to 5 µM
* CNCCC(Oc1cc(C#N)ccc1-n1nc2c(N(C)C)nnc(C)c2c1C)c1ccccc1 (centres unmarked) | > 5 µM
* CNCCC(Oc1ccccc1-n1nc2c(N(C)C)nnc(C)c2c1C)C1CCOCC1 (centres unmarked) | > 5 µM
* CNCCC(Oc1ccccc1-n1nc2cnnc(C)c2c1C)c1ccccc1 (centres unmarked) | > 5 µM
* CNCCC(Oc1ccccc1-n1nc2c(N(C)C)nnc(C)c2c1C)c1cccc(C(N)=O)c1 (centres unmarked) | 0.5 to 5 µM
* CNCCC(Oc1ccccc1-n1nc2c(N(C)CCN(C)C)nnc(C)c2c1C)c1ccccc1 (centres unmarked) | 0.5 to 5 µM
* CNCCC(Oc1ccc(C#N)cc1-n1nc2c(N(C)C)nnc(C)c2c1C)c1ccccc1 (centres unmarked) | > 5 µM
* CNCCC(Oc1ccccc1-n1nc2c(C(C)C)nnc(C)c2c1C)c1ccccc1 (centres unmarked) | > 5 µM
